target: EPHB2 (UniProt P29323); experiment: phosphorylation enrichment, bacterial display (enrichment ratio); higher = better substrate or ligand; peptides without Tyr show the background;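 further: 11-residue human phosphosite peptides and single-mutation variants displayed on the E. coli surface, counted by deep sequencing, each peptide's frequency after selection divided by its frequency in the unselected input library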;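 further: frequency after pTyr selection over input frequency; kinase dosed for 20-30% of maximal phosphorylation in three min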
Sequence (P29323 whole entry, looked up): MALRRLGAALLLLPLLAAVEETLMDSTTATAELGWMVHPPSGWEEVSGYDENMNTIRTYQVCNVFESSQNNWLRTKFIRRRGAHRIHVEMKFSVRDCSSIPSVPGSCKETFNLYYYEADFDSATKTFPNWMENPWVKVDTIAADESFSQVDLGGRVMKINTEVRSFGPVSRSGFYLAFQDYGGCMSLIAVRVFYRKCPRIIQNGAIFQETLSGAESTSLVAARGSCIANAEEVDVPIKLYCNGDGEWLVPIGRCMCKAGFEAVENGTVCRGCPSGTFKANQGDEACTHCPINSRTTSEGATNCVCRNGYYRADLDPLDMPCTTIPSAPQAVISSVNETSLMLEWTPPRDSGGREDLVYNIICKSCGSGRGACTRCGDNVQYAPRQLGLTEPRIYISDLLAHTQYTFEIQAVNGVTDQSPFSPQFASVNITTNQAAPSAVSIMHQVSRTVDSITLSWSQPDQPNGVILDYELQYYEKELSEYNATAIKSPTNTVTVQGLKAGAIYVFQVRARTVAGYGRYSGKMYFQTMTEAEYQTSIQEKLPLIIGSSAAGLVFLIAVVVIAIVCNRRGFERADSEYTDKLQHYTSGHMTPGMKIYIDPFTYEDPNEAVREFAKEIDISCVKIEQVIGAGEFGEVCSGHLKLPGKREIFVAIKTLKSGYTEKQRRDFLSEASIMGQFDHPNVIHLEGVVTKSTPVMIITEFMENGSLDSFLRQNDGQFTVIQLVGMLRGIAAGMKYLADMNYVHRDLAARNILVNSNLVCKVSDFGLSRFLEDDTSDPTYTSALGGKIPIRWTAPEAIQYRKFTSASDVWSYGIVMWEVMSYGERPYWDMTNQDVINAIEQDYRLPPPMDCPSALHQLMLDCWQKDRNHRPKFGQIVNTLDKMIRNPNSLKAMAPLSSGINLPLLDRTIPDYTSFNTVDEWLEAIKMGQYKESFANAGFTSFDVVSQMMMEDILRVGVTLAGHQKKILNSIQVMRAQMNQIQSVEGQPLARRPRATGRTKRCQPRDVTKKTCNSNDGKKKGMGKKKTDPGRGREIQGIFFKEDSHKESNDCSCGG
// values below are reported phosphorylation enrichment
PARAMETER: phosphorylation enrichment

> print(dat)
                    construct.sequence  test.value
 1       IRDENYGEGSS [ACO2_Y665_G661R]       0.422
 2         SVGGCYEQLFV [MC4R_Y41_D37V]       0.661
 3        SHLSAFPALEG [CD5_Y465_Y465F]       0.367
 4  DAANNYARGHF [TUBA3E_Y103_S101N_YF]       0.626
 5       PADSGYPAFLG [ATP6V1A_Y374_YF]         0.6
 6       LTECGYSFTTT [ACTB_Y198_R196C]       0.781
 7      DKGTLYIAEQI [PLBD1_Y375_V377A]       0.446
 8     KSMFVYCTPNK [ATP2A2_Y497_S495F]       0.673
 9            EDEGLYMVRVP [MYOM3_Y343]        1.71
10       QKTGDYYDLYG [PTPN11_Y62_N58K]        6.98
11         MCDSHYLESRF [CLK1_Y56_S61F]       0.568
12                         LTDLRYKVSGP       0.957
13       YPKVRYHWLVL [APTX_Y214_A212V]       0.758
14            ANNPLYKEATS [ITGB3_Y773]       0.499
15       MSRNLYSGDCY [DDR2_Y736_Y740C]        2.35
16       QQIFTYDSGIH [JUP_Y22_T19I_YF]       0.991
17            GRKTLYSFFSP [UNG_Y8_Q4R]       0.603
18     FQCLRYIKQLG [SAMHD1_Y146_R143C]       0.434
19        VMAVAYRLAEQ [HK1_Y461_T457M]       0.496
20        ITNLLYHVVSW [GBA_Y412_G416S]        5.99
21                         TDGIAYEFRVI       0.603
22     RSPLRYISILT [OR51B6_Y130_T131I]       0.473
23             LSNPAYRLLLA [DDR1_Y513]         1.1
24   GDFFCYLAEVA [YWHAG_Y133_R132C_YF]       0.655
25             DTQNSYGCATS [TSC1_Y304]       0.445
26         ENELTYYCYKK [CD59_Y86_C89Y]       0.752
27            KLSFSYGRALQ [ALDOB_Y302]       0.483
28         RLLVIYPWTQR [HBG2_Y36_V35I]       0.639
29           FLQTDYTSQVS [FRMPD1_Y846]        0.44
30           EGLKVYVNGTL [ADGRD1_Y183]        0.68
31            GLDGSYLLRDS [SH2D1A_Y29]       0.387
32      CVRTIYTIDGS [DCLK2_Y124_G119C]       0.628
33           RRGTGYTLSLP [MAGEC3_Y152]       0.643
34           DLLMQYPKAQG [FAM83C_Y600]       0.301
35   AEVDTYCRHNY [HLA-DRB1_Y107_A103E]       0.559
36       NYYDLYGGEKF [PTPN11_Y66_D61N]        12.1
37            KTDVHYRSLGG [DYSF_Y1858]       0.371
38       RQGQAYRGQRV [TSHR_Y706_A703G]       0.339
39     LAETSYVIVLE [MAGEA1_Y276_K278I]        0.99
40           ARGTRYRFVSQ [UCN3_Y95_YF]        0.41
41      RSDSTYRMSAT [NHS_Y1532_S1531T]       0.556
42             MGRVNYGAYIN [GLB1_Y485]       0.486
43          RSFSPYDFQPC [TNS1_Y796_YF]       0.929
44      WDLPEYSYKDP [ITGA3_Y237_S235P]       0.651
45              RLNAIYQNNLT [GSR_Y158]       0.609
46         AHPGEYGAEAL [HBA1_Y25_A22P]        0.51
47      INASGYRVGPA [ACSM1_Y477_I479V]       0.485
48            NACGLYHKMNG [GATA5_Y216]       0.447
49          RGDTVYTVNRM [KBTBD13_Y404]       0.441
50        PAIERYVVVCK [RHO_Y136_L131P]       0.846
51      FESPRYLQVRI [FANCA_Y488_H492R]       0.477
52  HSKGIYFVQLE [MGAT4B_Y262_Q257H_YF]       0.911
53       SVVVLYEPPEV [TP53_Y220_P219L]          11
54       DPLLTYLFPPK [LMNA_Y481_R482L]       0.781
55        NSVLVYRNGDP [DCDC2_Y22_K17N]       0.463
56        PELINYHQPNS [BTK_Y361_H364P]       0.727
57         QNTGDYFDLFG [PTPN11_Y62_YF]        20.4
58       VSLLPYFPAIM [IPO4_Y518_A513V]       0.657

Source listed as the supplement of paper PMC10065799.
